# Organism: Rattus norvegicus
# assay remarks: Vasodilatory activity in rat aorta assessed as relaxation of phenylephrine-induced vasoconstriction
pEC50: −log10 of the molar value. Structures can show the parent of a compound that is named as a salt.
# Lookup of reported pEC50 keyed by entry
measurement name: pEC50

compound: [O-][N+]([O-])=NO [ANGELI'S SALT]
recorded measurement: 7.09
//
compound: O=NC1(OC(=O)C(F)(F)F)CCCCC1 [1-NITROSOCYCLOHEXYL TRIFLUOROACETATE]
recorded measurement: 6.06
//
compound: CC(=O)OC1(N=O)CCCCC1 [1-NITROSOCYCLOHEXYL ACETATE]
recorded measurement: 5.00

---

# Lookup of reported pEC50 keyed by entry
# Organism: Rattus norvegicus
# assay remarks: Vasodilatory activity in rat thoracic aorta assessed as relaxation of phenylephrine-induced vasoconstriction
pEC50: −log10 of the molar value. Structures can show the parent of a compound that is named as a salt.
measurement name: pEC50

compound: [O-][N+]([O-])=NO [ANGELI'S SALT]
recorded measurement: 7.09
//
compound: CC(=O)OC1(N=O)CCCCC1 [1-NITROSOCYCLOHEXYL ACETATE]
recorded measurement: 5.00
//
compound: O=NC1(OC(=O)C(F)(F)F)CCCCC1 [1-NITROSOCYCLOHEXYL TRIFLUOROACETATE]
recorded measurement: 6.06
